- target: cloned human 5-HT2C receptor (Homo sapiens)
- Construct: purchased Euroscreen; host or cells: CHO-K1
- Sequence (P28335 33-458): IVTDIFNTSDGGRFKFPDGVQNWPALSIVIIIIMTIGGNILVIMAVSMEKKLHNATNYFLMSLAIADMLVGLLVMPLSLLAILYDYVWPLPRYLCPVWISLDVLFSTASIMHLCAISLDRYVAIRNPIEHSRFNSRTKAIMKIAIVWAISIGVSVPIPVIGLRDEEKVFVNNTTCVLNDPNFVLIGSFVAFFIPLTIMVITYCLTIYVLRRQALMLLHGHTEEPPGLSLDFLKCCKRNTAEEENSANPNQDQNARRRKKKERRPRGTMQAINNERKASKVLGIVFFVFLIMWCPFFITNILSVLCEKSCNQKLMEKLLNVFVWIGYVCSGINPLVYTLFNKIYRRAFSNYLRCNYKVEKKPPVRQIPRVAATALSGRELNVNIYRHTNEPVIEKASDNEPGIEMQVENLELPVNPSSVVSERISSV
- assay remarks: Human 5-HT2C receptor binding assay
- experimental conditions: [3H]mesulergine (1 nM) displacement, CHO-K1 cell membranes; read-out: 5-HT2C pKi (converted)
Counter-ions that a name gives are not always drawn.
Parameter: Ki. Scope: all listed entries.

Cc1cc(Nc2cc(Br)ccc2C)nc(N)n1    > 1000 nM

Quickly give me recorded Ki for Cc1cc(Nc2cccc(-c3ccc(N(C)C)cc3)c2)nc(N)n1 [Compound 10H, bis trifluoroacetic acid] > 316 nM

Quickly give me recorded Ki for Nc1nc(-c2cccc3ccc(Br)cc23)c[nH]1 [Compound 104G] > 316 nM

Quickly give me recorded Ki for Cc1ccc(Nc2cc(C)nc(N)n2)cc1 [Compound 2U, hydrochloride] > 1000 nM

Quickly give me recorded Ki for Cc1cc(Nc2ccc(I)c(Cl)c2)nc(N)n1 [Compound 2Y, hydrochloride] > 1000 nM

Quickly give me recorded Ki for Cc1cc(Nc2ccccc2)nc(N)n1 > 1000 nM

Quickly give me recorded Ki for Cc1cc(Nc2cccc(C(F)(F)F)c2)nc(N)n1 [Compound 2H, hydrochloride] > 1000 nM

Quickly give me recorded Ki for Cc1cc(Oc2cccc(-c3ccccc3)c2)nc(N)n1 > 10000 nM

Quickly give me recorded Ki for Cc1oc(N)nc1-c1cccc(-c2ccccc2)c1 [Compound 218A, trifluoroacetic acid] > 1000 nM

Quickly give me recorded Ki for Cc1cc(Nc2ccc3c(c2)CCC3)nc(N)n1 [Compound 2J, hydrochloride] > 1000 nM

Quickly give me recorded Ki for Cc1cc(Nc2cccc(-c3cccnc3)c2)nc(N)n1 [Compound 10D, bis trifluoroacetic acid] > 1000 nM

Quickly give me recorded Ki for Cc1cc(Nc2cccc(-c3ccccc3)c2)nc(N)n1 [Compound 10A, trifluoroacetic acid] > 316 nM

Quickly give me recorded Ki for Nc1nc(-c2cccc3c(Br)cccc23)c[nH]1 [Compound 104H] > 100 nM

Quickly give me recorded Ki for Cc1cc(Nc2cccc(Br)c2)nc(N)n1 > 1000 nM

Quickly give me recorded Ki for Cc1cccc(-c2cccc(Nc3nc(N)nn3C)c2)c1 [Compound 406C] > 1000 nM

Quickly give me recorded Ki for Cc1cc(Nc2ccc(-c3ccccc3)cc2)nc(N)n1 [Compound 11A, trifluoroacetic acid] > 100 nM

Quickly give me recorded Ki for COc1ccc(-c2cccc(C)c2)cc1-c1cnc(N)o1 [Compound 224C, trifluoroacetic acid] > 1000 nM

Quickly give me recorded Ki for COc1ccc(-c2c[nH]c(NC(C)=O)n2)c2ccccc12 [Compound 103B] > 10000 nM
